Property: melting point

Please review the following examples before continuing.
>>> print(df.to_string())
                                   compound       property  experimental_result
0  O=c1c2ccc(Cl)cc2[nH]c2c(O)nn(Cc3ccoc3)c(=O)c12  melting point             > 250 °C
1  O=C1c2ccccc2C(=O)N1CCCOc1cccc([N+](=O)[O-])c1  melting point        149 to 152 °C
2             Nc1sc2c(c1C(=O)c1ccccc1)CCSC2  melting point          92 to 95 °C
3  COc1ccc(F)cc1C(C)(C)CC(O)(Cc1ccccn1)C(F)(F)F (configuration not stated)  melting point          94 to 96 °C
4                       CCCCNC(=O)NC1CCNCC1  melting point        132 to 134 °C
5  CCCCc1nc2cc(C(=O)OC)ccc2n1Cc1ccc(-c2ccccc2-c2nnn[nH]2)cc1  melting point        134 to 136 °C
6  COc1ccc(Cl)cc1N1C(=O)NC(=O)C1c1ccccc1 (configuration not stated)  melting point               200 °C
7  CCCC(C)(Br)C(=O)Nc1ccc(C(C)C)cc1 (configuration not stated)  melting point      87.2 to 88.2 °C

Provide measured melting point value, entry: CCCCCCCCc1ccc(-c2ccc(COc3ccc(OCC(C)OC(=O)OCCCC)cc3)cc2)cc1 (configuration not stated) 94 °C

Provide measured melting point value, entry: NCC1CCCN(c2c(F)cc3c(=O)c(C(=O)O)cn(C4CC4)c3c2F)C1 (configuration not stated) 242 to 243 °C

Provide measured melting point value, entry: CC(C(=O)O)c1cccc(OCCC(=O)O)c1 (configuration not stated) 144 to 146 °C

====

Property: melting point

>>> print(df.to_string())
                                   molecule  experimental_result
0  O=C1C(=O)c2ccccc2C2=C1SCC1(CCCN(CC(O)Cc3ccccc3)C1)O2 (stereo not given)          59 to 60 °C
1  COc1cccc(C2C=C(C)NC(CN3C(=O)c4ccccc4C3=O)=C2)c1[N+](=O)[O-] (stereo not given)                98 °C
2  CCSc1ccc2c3c([nH]c2c1)CCCCC3C (stereo not given)                44 °C
3  COc1ccccc1-c1ccc(C(=O)N2Cc3ccc(C(=O)N(C)CC(O)CO)n3Cc3ccccc32)cc1C (stereo not given)        174 to 184 °C

Continue with the next molecule.
Provide measured melting point value, entry: CN(C)c1ccc(N=Nc2ccccc2C(=O)NCCN)cc1 119 to 124 °C

====

Documented melting point across a set of compounds

Please review the following examples before continuing.
>>> df
                                   compound  experimental_result
0  COc1ccc(C(=O)Nc2ccccc2)cc1NCc1cccc(C(=O)O)c1        210 to 212 °C
1  COc1cc2ncc(C#N)c(Nc3cccc(N(C)C)c3)c2cc1OC        246 to 249 °C
2      O=C1c2ccccc2-n2cnc(I)c2[C@@H]2CCCN12        222 to 223 °C

Provide measured melting point value, entry: NS(=O)(=O)c1cc2ccccc2n1S(=O)(=O)c1ccccc1 199 to 200 °C

Provide measured melting point value, entry: CCOC(=O)c1c[nH]c(C2CCN(CCC(CN(C)C(=O)c3ccccc3)c3ccc(Cl)c(Cl)c3)CC2)n1 (stereo not given) 96 to 102 °C

Provide measured melting point value, entry: CC(Cc1c[nH]c2ccccc12)(NC(=O)OC1C2CC3CC(C2)CC1C3)C(=O)NCCc1ccco1 (stereo not given) 87 to 97 °C

Provide measured melting point value, entry: Clc1ccc2c(c1)NCc1ccccc1O2 94 to 95 °C

Provide measured melting point value, entry: CSC(=S)C1(c2ccccn2)OCCCS1 (stereo not given) 116 °C

Provide measured melting point value, entry: CC(C)c1nc(CO)c(CO)[nH]1 200 to 201 °C

Provide measured melting point value, entry: O=C1C2CCCCC2C(=O)N1c1cc(C(F)(F)F)cc(C(F)(F)F)c1 (stereo not given) 85 to 87 °C

====

Property: melting point

Please review the following examples before continuing.
                                   compound       property  experimental_result
0  Cc1c(OCC(F)(F)C(F)(F)F)ccnc1CSc1nc2ccccc2[nH]1  melting point        145 to 146 °C
1                  COC(=O)Nc1ccc(OC)c(OC)c1  melting point          83 to 87 °C
2                 CC#CCc1c(C)nc2cc(C)nn2c1N  melting point        215 to 219 °C
3  C[C@H](NC(=O)CCC1CCC(=O)N1)C(=O)O (stereo partly specified)  melting point        174 to 179 °C
4  COc1cnc(C(O)Cc2c(Cl)cncc2Cl)cc1OC1CCCC1 (stereo unspecified)  melting point        110 to 112 °C
5  Brc1ccccc1Cn1c(-c2ccc3c(c2)OCO3)nc2ccccc21  melting point        122 to 124 °C
6     COC(=O)c1nnc(Cl)cc1NCc1ccc(OC)c(Cl)c1  melting point        162 to 163 °C
7  COc1cn(-c2ccc(N3CC(F)(F)C(F)(F)C3)cc2F)nc(-c2ccnn2-c2ccccc2)c1=O  melting point        175 to 177 °C
8              O=C(NCCCOc1ccncc1)c1ccccc1CO  melting point        108 to 109 °C
9          CN(c1cc(Cl)ccc1C(=O)O)S(C)(=O)=O  melting point        161 to 164 °C

Continue with the next compound.
Provide measured melting point value, entry: Cc1ccc(NC(=O)C(F)(F)F)cc1C(F)(F)F 72 to 74 °C

====

Documented melting point across a set of compounds

In [3]: df
Out[3]:
                                   compound  experimental_result
0  CS(=O)(=O)c1ccc(N2CCc3ccccc32)c([N+](=O)[O-])c1        152 to 154 °C
1         O=c1c(-c2ccccc2)c[nH]cc1-c1ccccc1             > 335 °C
2             Cc1ccc2onc(-c3ccc(Cl)cc3)c2c1                95 °C
3  CC(=O)c1ccc(Nc2nnc(Cc3ccncc3)c3ccccc23)cc1O        234 to 236 °C
4  CCCCN(CCCC)CCCOc1ccc(S(=O)(=O)c2cn[nH]c2C(C)C)cc1                53 °C

Provide measured melting point value, entry: CCCCCc1ccc(-c2ccc(C(C)OC(=O)CCC)cc2)cc1 (single isomer, unassigned; (+)) 38.1 °C

Provide measured melting point value, entry: O=c1c2c(CCc3ccccc3)n[nH]c2c2cccnc2n1-c1ccccc1 248 to 250 °C

Provide measured melting point value, entry: CNC(=O)C(Cc1ccc(OC)cc1)NC(=O)C(CC(C)C)C(CC(=O)O)SC(C)=O (stereo not given) 92 to 95 °C

Provide measured melting point value, entry: COC(=O)NC1=NC(c2ccc(C(C)C)cc2)CCN1 (stereo not given) 195 to 197 °C

Provide measured melting point value, entry: COC(=O)C1=C(C(OC)OC)NC(C)=C(P2(=O)OCCCO2)C1c1ccccc1[N+](=O)[O-] (stereo not given) 174 to 176 °C

====

Property: melting point

In [3]: df
Out[3]:
                                   compound       property  experimental_result
0                               OCCOc1ccsc1  melting point          38 to 39 °C
1  Cc1cc(C2=NOC(c3cc(Cl)cc(Cl)c3)(C(F)(F)F)C2)ccc1C(=O)NCC(F)(F)F (stereo not given)  melting point        156 to 157 °C
2  C=CCN1C2CCC1C1CCC2N1C(c1ccc(C(=O)N(CC)CC)cc1)c1cccc(OC)c1 (stereo not given)  melting point         99 to 101 °C

Provide measured melting point value, entry: CCOC(=O)c1cc(=O)n(CCC(C(=O)NO)N(C)S(=O)(=O)c2ccc(Oc3ccccc3)cc2)c(=O)[nH]1 (stereo not given) 159 to 160 °C

Provide measured melting point value, entry: OC(CCN1CCC(c2ccc(F)cc2)CC1)c1ccc(Cc2ccc(Cl)cc2)cc1 (stereo not given) 94 to 95 °C

Provide measured melting point value, entry: N#Cc1ccc(OCCCc2cc3c(cc2OCc2ccccc2)CC(CCc2ccccc2)O3)cc1 (stereo not given) 154 to 157 °C

Provide measured melting point value, entry: O=C(Nc1ccc(-n2nc(C(F)(F)F)cc2C(F)(F)F)cc1)c1cc(Cl)cnc1Cl 228 to 229 °C

Provide measured melting point value, entry: CCc1nc(-c2ncn(-c3cccc(O)c3)c2C)no1 226 to 227 °C

Provide measured melting point value, entry: CN(Cc1cc(C(F)(F)F)cc(C(F)(F)F)c1)C(=O)c1nc(Cl)c2ccccc2c1-c1ccccc1 176 to 177 °C

Provide measured melting point value, entry: CN1CCC(n2ccc3ccccc32)CC1 58 °C

Provide measured melting point value, entry: S=C(Cc1ccccc1)N1CCOCC1 115 to 116 °C

Provide measured melting point value, entry: CC(C)(C)C(O)(COc1ccccc1)c1cccnc1 (stereo not given) 89 to 90.5 °C

Sourced from a melting point compilation (Tetko et al.; mined from patent text by program, amines drawn as free bases though some values may be those of a salt)
